target: human GABAA α1β2γ1 receptor (Homo sapiens (Human), UniProt P14867+Q8N1C3); experiment: Radioligand binding assay, [3H]RO7239181 competition, γ1-containing GABAA subtypes; settings: HEK293F membranes, [3H]RO7239181 20-30 nM, mean of two determinations
Give Ki for every item shown.
Provide the reading as a plain figure in nM.

Request body: readout Ki, system human GABAA α1β2γ1 receptor (Homo sapiens (Human), UniProt P14867+Q8N1C3), query Cc1nnc2n1-c1ccc(Cl)c(Cl)c1C(c1c(F)cccc1F)=N[C@H]2C . Return the value.
12.8

Request body: readout Ki, system human GABAA α1β2γ1 receptor (Homo sapiens (Human), UniProt P14867+Q8N1C3), query C[C@@H]1N=C(c2ncccc2F)c2c(ccc(Cl)c2Cl)-n2c(C3CC3)nnc21 . Return the value.
359

Request body: readout Ki, system human GABAA α1β2γ1 receptor (Homo sapiens (Human), UniProt P14867+Q8N1C3), query C[C@@H]1N=C(c2ncccc2F)c2c(ccc(Cl)c2Cl)-n2c(-c3ccncn3)nnc21 . Return the value.
231

Request body: readout Ki, system human GABAA α1β2γ1 receptor (Homo sapiens (Human), UniProt P14867+Q8N1C3), query C[C@@H]1N=C(c2c(F)cccc2F)c2c(ccc(C(F)(F)F)c2Cl)-n2c(CO)nnc21 . Return the value.
49.8

---

biological target: human GABAA α2β2γ1 receptor (Homo sapiens (Human), UniProt P47869+Q8N1C3); assay: Radioligand binding assay, [3H]RO7239181 competition, γ1-containing GABAA subtypes; details: HEK293F membranes, [3H]RO7239181 20-30 nM, mean of two determinations; read-out: Ki h-GABAA α2β2γ1
Give Ki for every item shown.

Which Ki is reported for this molecule? C[C@@H]1N=C(c2c(F)cccc2F)c2c(ccc(Cl)c2Cl)-n2c(-c3cccnn3)nnc21
4.6 nM

Which Ki is reported for this molecule? Cc1nnc2n1-c1ccc(C(F)F)c(Cl)c1C(c1c(F)cccc1F)=N[C@H]2C
55.4 nM

Which Ki is reported for this molecule? C[C@@H]1N=C(c2c(F)cccc2F)c2c(ccc(Cl)c2Cl)-n2c(-c3ccncn3)nnc21
5.7 nM

Which Ki is reported for this molecule? COC[C@@H]1N=C(c2c(F)cccc2F)c2c(ccc(Br)c2Cl)-n2c(C)nnc21
19.8 nM

Which Ki is reported for this molecule? CC[C@@H]1N=C(c2c(F)cccc2F)c2c(ccc(Br)c2Cl)-n2c(C)nnc21
72 nM

Which Ki is reported for this molecule? C[C@@H]1N=C(c2ccccc2F)c2c(ccc(Br)c2Cl)-n2cnnc21
43.6 nM

Which Ki is reported for this molecule? Cc1nnc2n1-c1ccc(I)c(Cl)c1C(c1c(F)cccc1F)=N[C@H]2C
8 nM

Which Ki is reported for this molecule? Cc1ccc(-c2nnc3n2-c2ccc(Cl)c(Cl)c2C(c2c(F)cccc2F)=N[C@H]3C)nn1
4.4 nM

---

Give Fold increase h-GABA-A α2β2γ1 oocyte @ 30-fold Ki for every item shown.
Molecular target: h-GABA-A α2β2γ1 (Homo sapiens (Human), UniProt P47869+Q8N1C3)
Assay: Two-electrode voltage clamp electrophysiology in Xenopus oocytes expressing GABAA receptors
Format: cell-based
Conditions: GABA EC20, test compound at about 30-fold its Ki α2β2γ1, at least 3 oocytes
Method: Xenopus laevis oocytes at maturation stages V-VI were used for the expression of cloned mRNA encoding GABAA receptor subunits. Oocytes ready for RNA micro-injection were bought from Ecocyte, Castrop-Rauxel, Germany and stored in modified Barth's medium (composition in mM: NaCl 88, KCl 1, NaHCO3 2.4, HEPES 10, MgSO4 0.82, CaNO3 0.33, CaCl2 0.33, pH=7.5) at 20° C. until the experiment. […]
Write no unit; give the number alone.

Which Fold increase h-GABA-A α2β2γ1 oocyte @ 30-fold Ki is reported for this molecule? C[C@@H]1N=C(c2ccccc2F)c2c(ccc(Br)c2Cl)-n2cnnc21
1.57

Which Fold increase h-GABA-A α2β2γ1 oocyte @ 30-fold Ki is reported for this molecule? C[C@@H]1N=C(c2c(F)cccc2F)c2c(ccc(Cl)c2Cl)-n2c1n[nH]c2=O
1.74

Which Fold increase h-GABA-A α2β2γ1 oocyte @ 30-fold Ki is reported for this molecule? Cc1nnc2n1-c1ccc(C(F)(F)F)c(Cl)c1C(c1c(F)cccc1F)=N[C@H]2C
1.92

Which Fold increase h-GABA-A α2β2γ1 oocyte @ 30-fold Ki is reported for this molecule? Cc1ccc(-c2nnc3n2-c2ccc(Cl)c(Br)c2C(c2c(F)cccc2F)=N[C@H]3C)nn1
2.05

Which Fold increase h-GABA-A α2β2γ1 oocyte @ 30-fold Ki is reported for this molecule? COC[C@@H]1N=C(c2c(F)cccc2F)c2c(ccc(Br)c2Cl)-n2c(C)nnc21
1.64

Which Fold increase h-GABA-A α2β2γ1 oocyte @ 30-fold Ki is reported for this molecule? OC1N=C(c2c(F)cccc2F)c2c(ccc(Br)c2Cl)-n2cnnc21 (centres unmarked)
1.74

Which Fold increase h-GABA-A α2β2γ1 oocyte @ 30-fold Ki is reported for this molecule? C[C@@H]1N=C(c2ncccc2F)c2c(ccc(Br)c2Cl)-n2c(C3CC3)nnc21
2.02

Which Fold increase h-GABA-A α2β2γ1 oocyte @ 30-fold Ki is reported for this molecule? Cc1cc(-c2nnc3n2-c2ccc(Cl)c(Cl)c2C(c2c(F)cccc2F)=N[C@H]3C)on1
1.42

---

biological target: human GABAA α2β2γ1 receptor (Homo sapiens (Human), UniProt P47869+Q8N1C3); experiment: Radioligand binding assay, [3H]RO7239181 competition, γ1-containing GABAA subtypes; details: Log[Ki α1β3γ2 (nM)/Ki α2β2γ1 (nM)]
I'd appreciate it if you marked entries Condition met when LogSel is lower than 2 and Condition not met when it is not.

Lab note: LogSel threshold 2. Does this molecule come in strictly under it? C[C@@H]1N=C(c2ncccc2F)c2c(ccc(Cl)c2Cl)-n2c(-c3ccncn3)nnc21
Condition met

Lab note: LogSel threshold 2. Does this molecule come in strictly under it? Cc1nnc2n1-c1cccc(Cl)c1C(c1c(F)cccc1F)=N[C@H]2C [RE-D, reference compound]
Condition met

Lab note: LogSel threshold 2. Does this molecule come in strictly under it? Cc1nnc2n1-c1ccc(Br)c(Cl)c1C(c1c(F)cccc1F)=N[C@H]2C
Condition met

Lab note: LogSel threshold 2. Does this molecule come in strictly under it? Cc1ccc(-c2nnc3n2-c2ccc(Cl)c(Br)c2C(c2c(F)cccc2F)=N[C@H]3C)nn1
Condition not met

Lab note: LogSel threshold 2. Does this molecule come in strictly under it? C[C@@H]1N=C(c2ncccc2F)c2c(ccc(Cl)c2Cl)-n2c(-c3cnn(C)c3)nnc21
Condition met

Lab note: LogSel threshold 2. Does this molecule come in strictly under it? Cc1nnc2n1-c1ccc(I)c(Cl)c1C(c1c(F)cccc1F)=N[C@H]2C
Condition met

---

Give Ki for every item shown.
molecular target: human GABAA α1β2γ1 receptor (Homo sapiens (Human), UniProt P14867+Q8N1C3); experiment: Radioligand binding assay, [3H]RO7239181 competition, γ1-containing GABAA subtypes; conditions: HEK293F membranes, [3H]RO7239181 20-30 nM, mean of two determinations
Provide the reading as a plain figure in nM.

Which Ki is reported for this molecule? Cc1nnc2n1-c1ccc(Cl)c(Br)c1C(c1c(F)cccc1F)=N[C@H]2C [Example 80]
42.6

Which Ki is reported for this molecule? Cc1nnc2n1-c1ccc(I)c(Cl)c1C(c1c(F)cccc1F)=N[C@H]2C [Example 102]
6.6

Which Ki is reported for this molecule? OC1N=C(c2c(F)cccc2F)c2c(ccc(Br)c2Cl)-n2cnnc21 (stereo not shown) [Example 31]
39.7

Which Ki is reported for this molecule? Cc1nccc(-c2nnc3n2-c2ccc(Cl)c(Cl)c2C(c2c(F)cccc2F)=N[C@H]3C)n1 [Example 95]
24.7

Which Ki is reported for this molecule? COC[C@@H]1N=C(c2c(F)cccc2F)c2c(ccc(Br)c2Cl)-n2c(C)nnc21 [Example 100]
34

Which Ki is reported for this molecule? Cc1ccc(-c2nnc3n2-c2ccc(Cl)c(Cl)c2C(c2c(F)cccc2F)=N[C@H]3C)nn1 [Example 86]
5.9

Which Ki is reported for this molecule? Cc1nnc2n1-c1ccc(C(F)F)c(Cl)c1C(c1c(F)cccc1F)=N[C@H]2C [Example 99]
63.4

Which Ki is reported for this molecule? C[C@@H]1N=C(c2c(F)cccc2F)c2c(ccc(Cl)c2Cl)-n2c(-c3cnn(C)c3)nnc21 [Example 53]
14.4

Which Ki is reported for this molecule? CC[C@@H]1N=C(c2c(F)cccc2F)c2c(ccc(Br)c2Cl)-n2c(C)nnc21 [Example 98]
57.6

Which Ki is reported for this molecule? Cc1ccc(-c2nnc3n2-c2ccc(Cl)c(Br)c2C(c2c(F)cccc2F)=N[C@H]3C)nn1 [Example 88]
34.5

Which Ki is reported for this molecule? Cc1nnc2n1-c1ccc(C(F)(F)F)c(Cl)c1C(c1c(F)cccc1F)=N[C@H]2C [Example 92]
48.3

Which Ki is reported for this molecule? C[C@@H]1N=C(c2c(F)cccc2F)c2c(ccc(Cl)c2Br)-n2c(-c3ccncn3)nnc21 [Example 74]
28.3

Which Ki is reported for this molecule? Cc1cc(-c2nnc3n2-c2ccc(Cl)c(Cl)c2C(c2c(F)cccc2F)=N[C@H]3C)ncn1 [Example 94]
10.3

Which Ki is reported for this molecule? C[C@@H]1N=C(c2ncccc2F)c2c(ccc(Br)c2Cl)-n2cnnc21 [Example 84]
97.1

Which Ki is reported for this molecule? Cc1nnc2n1-c1ccc(Br)c(Cl)c1C(c1c(F)cccc1F)=N[C@H]2CO [Example 101]
14.3

Which Ki is reported for this molecule? C[C@@H]1N=C(c2c(F)cccc2F)c2c(ccc(Cl)c2Cl)-n2c(-c3ccncn3)nnc21 [Example 52]
10.2
